Form field: IC50 (one value per entry).
testedTarget: D3 DAR (Homo sapiens)
Sequence (P35462 whole entry): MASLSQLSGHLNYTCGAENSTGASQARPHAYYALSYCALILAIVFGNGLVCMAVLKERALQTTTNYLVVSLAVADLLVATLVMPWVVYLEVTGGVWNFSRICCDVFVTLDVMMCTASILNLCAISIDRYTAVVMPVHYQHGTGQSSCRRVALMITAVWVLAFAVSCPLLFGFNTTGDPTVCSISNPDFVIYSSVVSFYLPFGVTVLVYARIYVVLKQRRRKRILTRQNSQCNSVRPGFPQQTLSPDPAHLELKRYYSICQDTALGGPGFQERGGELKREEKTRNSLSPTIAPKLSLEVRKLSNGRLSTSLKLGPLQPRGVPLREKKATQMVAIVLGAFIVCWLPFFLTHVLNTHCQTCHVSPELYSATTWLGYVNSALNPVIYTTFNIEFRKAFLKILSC
testSummary: Go BRET activation assay, D3 DAR
Format: cell-based
assayConditions: EC80 DA (30 nM)
Method: Briefly, HEK293T cells transiently expressing either the D2 DAR or D3 DAR and GαoA-Rluc8, untagged-β1, and mVenus-γ2 were harvested with EBSS, plated in 96-well white plates at 20,000 cells/well in DPBS and incubated at RT for 45 min. […] BRET signal was determined by quantifying and calculating the ratio of the light emitted by mVenus (525 nm) over that emitted by RLuc8 (485 nm) using a PHERAstar FSX Microplate Reader (BMG Labtech).

[
  {
    "compound": "Cc1[nH]c(C)c(S(=O)(=O)Nc2ccc(C(C)C)cc2)c1C(=O)N1CCCC1",
    "IC50": "1 to 10 µM"
  },
  {
    "compound": "Cc1[nH]c(C)c(S(=O)(=O)Nc2ccc(F)c(Cl)c2)c1C(=O)N1CCCC1",
    "IC50": "10 to 50 µM"
  },
  {
    "compound": "Cc1[nH]c(C)c(S(=O)(=O)Nc2cccc(Cl)c2)c1C(=O)N1CCCC1",
    "IC50": "1 to 10 µM"
  },
  {
    "compound": "[2H]C1([2H])CCC([2H])([2H])N1C(=O)c1c(C)[nH]c(C)c1S(=O)(=O)Nc1ccc(C(F)(F)F)c(Cl)c1",
    "IC50": "1 to 10 µM"
  },
  {
    "compound": "CCOC(=O)C1=NOC2(C1)C(=O)Nc1ccc(OC(F)(F)F)cc12 (racemic) [Cmp. 25]",
    "IC50": "> 50 µM"
  }
]

###

testedTarget: D3 DAR (Homo sapiens)
testSummary: DiscoverX D3 DAR β-arrestin recruitment assay
Format: cell-based
Design: host or cells: CHO
assayConditions: EC80 concentration of DA (30 nM); read-out: D3 DAR IC50
measuredQuantity: IC50

[
  {
    "compound": "Cc1[nH]c(C)c(S(=O)(=O)Nc2ccc(C(F)(F)F)c(Cl)c2)c1C(=O)N1CCN(C(=O)OC(C)(C)C)CC1",
    "measurement": "50 to 100 µM"
  },
  {
    "compound": "CCNC(=O)c1c(C)[nH]c(C)c1S(=O)(=O)Nc1ccc(C(F)(F)F)c(Cl)c1",
    "measurement": "< 10 µM"
  },
  {
    "compound": "Cc1ccc(CNS(=O)(=O)c2c(C)[nH]c(C)c2C(=O)N2CCCC2)cc1Cl",
    "measurement": "50 to 100 µM"
  },
  {
    "compound": "Cc1[nH]c(C)c(S(=O)(=O)Nc2ccc(C(F)(F)F)c(Cl)c2)c1C(=O)N1CC(F)(F)C(F)(F)C1",
    "measurement": "10 to 50 µM"
  },
  {
    "compound": "CCOC(=O)C1=NOC2(C1)C(=O)Nc1ccc(OC(F)(F)F)cc12 (stereo not shown) [compound 45]",
    "measurement": "10 to 50 µM"
  },
  {
    "compound": "Cc1[nH]c(C)c(S(=O)(=O)Nc2cc(Cl)cc(C(F)(F)F)c2)c1C(=O)N1CCC(F)(F)C1",
    "measurement": "10 to 50 µM"
  },
  {
    "compound": "Cc1[nH]c(C)c(S(=O)(=O)Nc2ccc(C3CC3)c(Cl)c2)c1C(=O)N1CCC(F)(F)C1",
    "measurement": "10 to 50 µM"
  }
]
